# assay_summary: M. tuberculosis H37Rv growth inhibitors, H37Rv strain (AID 1626);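 further: bacteria incubated seven days before Alamar blue readout; 0% = bacteria only wells and 100% = bacteria with antibiotic wells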
# test_context: hits give high values, concentration not given here
Among all 220,000 compounds or so, about 2,000 (0.91%) were called active. Not shown: some 2% with an inconclusive outcome. The list is a sample of the results. Potency and affinity values are given separately.

{"compound": "CCOc1cc(C=O)cc(Br)c1OCC(N)=O", "inhibition (%)": -0.11}
{"compound": "Cc1nn(C(=O)c2c(-c3ccccc3)noc2C)c(C)c1N=Nc1cc(C(F)(F)F)cc(C(F)(F)F)c1", "inhibition (%)": 4.12}
{"compound": "CCOC(=O)N1CCN(S(=O)(=O)/C=C/c2ccccc2)CC1", "inhibition (%)": -17.8}
{"compound": "CCNC(=O)N1CCN(C(=O)NCC)CC1", "inhibition (%)": -2.46}
{"compound": "CCCn1c(C(C)NC(=O)c2ccccc2)nc2ccccc21 (configuration not stated)", "inhibition (%)": 0.32}
{"compound": "CCn1cc(C(=O)O)c(=O)c2cc(F)c(N3CCN(C(=O)Nc4ccccc4)CC3)cc21", "inhibition (%)": 74.6}
{"compound": "CCCCCCC(=O)N1CCN(c2cc3c(cc2F)c(=O)c(C(=O)O)cn3CC)CC1", "inhibition (%)": 0.13}
{"compound": "COc1ccccc1NC(=S)NC1CCCCCC1", "inhibition (%)": -4.57}
{"compound": "CCOc1ccccc1C1N=C(c2ccc(OC)cc2)CC(c2ccccc2O)N1 (configuration not stated)", "inhibition (%)": 7.98}
{"compound": "CCn1cc(C(=O)NCc2ccco2)c(=O)c2cc(F)c(N3CCN(C(=O)c4ccco4)CC3)cc21", "inhibition (%)": 71.1}
{"compound": "O=C1[C@@H]2[C@@H]3C[C@@H]([C@H]4ON=C(c5ccc(OCc6ccccc6)cc5)[C@@H]34)[C@@H]2C(=O)N1c1ccc2c(c1)OCO2", "inhibition (%)": 0.02}
{"compound": "O=C(COC(=O)c1ccc(O)cc1)Nc1ccc(N2CCCCC2)cc1", "inhibition (%)": 3.59}
{"compound": "CCOc1ccc(C(C)NC(=O)C2CCC2)cc1 (configuration not stated)", "inhibition (%)": 1.59}
{"compound": "COc1cccc(C2=NC(C)(C)NC(c3ccccc3O)C2)c1 (configuration not stated)", "inhibition (%)": 4.8}
{"compound": "CS(=O)(=O)N(CC(=O)Nc1cccc([N+](=O)[O-])c1)c1ccccc1", "inhibition (%)": -4.25}
{"compound": "COc1ccc(CCC(=O)Nc2cccc(Cl)c2)cc1", "inhibition (%)": 10.2}
{"compound": "COc1ccc(C2C(C#N)=C(C)NC3=C2C(=O)CC(C)(C)C3)cc1 (configuration not stated)", "inhibition (%)": 6.62}
{"compound": "Cc1ccc(-n2c(C)nn(CCOc3ccccc3)c2=O)cc1", "inhibition (%)": 6.33}
{"compound": "COCCOCCn1c(/C=C/c2ccccc2)nc2ccccc21", "inhibition (%)": 11}
{"compound": "CCn1cc(C(=O)NCc2ccncc2)c(=O)c2cc(F)c(N3CCN(C(=O)c4ccco4)CC3)cc21", "inhibition (%)": 10.2}
{"compound": "CCCn1c(CNC(=O)c2ccccc2)nc2ccccc21", "inhibition (%)": -0.92}
{"compound": "CCOC(=O)C1(CC/C(C)=N\\NC(N)=O)CC(C)(C)OC1=O (configuration not stated)", "inhibition (%)": -7.16}

====

The compounds listed here are annotated with their inhibition.
# assay_summary: M. tuberculosis H37Rv growth inhibitors, H37Rv strain (AID 1626);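 further: bacteria incubated seven days before Alamar blue readout; 0% = bacteria only wells and 100% = bacteria with antibiotic wells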
# test_context: hits give high values, concentration not given here
In all, about 220,000 compounds went through this assay and about 2,000 (0.91%) were called active. Inconclusive results (about 2%) are left out. A selection follows. Potency and affinity values are given separately.

{"compound": "Cc1csc(NC(=O)C2CCCC2)n1", "inhibition (%)": -11.7}
{"compound": "C=C(C)Cn1c(SCCCO)nc2c1c(=O)[nH]c(=O)n2C", "inhibition (%)": -7.43}
{"compound": "Cc1cc(OCCCn2ccnc2)cc(C)c1Cl", "inhibition (%)": 16.8}
{"compound": "Cc1csc(Cn2c(CN(C)C)nc3ccccc3c2=O)n1", "inhibition (%)": 5.39}
{"compound": "COc1ccc(C(=O)N2CCN(c3ccccc3OC)CC2)cc1", "inhibition (%)": 0.49}
{"compound": "Nc1cc(-c2ccccc2)nn1S(=O)(=O)c1ccc(Br)cc1", "inhibition (%)": 12.3}
{"compound": "CCc1ccc2c(c1)[C@]1(C(=O)N2)[C@@H]2C(=O)N(Cc3ccccc3)C(=O)[C@@H]2[C@@H]2CCCN21", "inhibition (%)": 3.94}
{"compound": "CC(NC(=O)c1ccc(OC2CCN(S(=O)(=O)N(C)C)CC2)cc1)C1CC1 (stereo not drawn)", "inhibition (%)": -9.26}
{"compound": "CCn1nc(C)cc1C(=O)N1CCCC(C(=O)c2ccc3ccccc3c2)C1 (stereo not drawn)", "inhibition (%)": 5.72}
{"compound": "CN(C)c1ccccc1C(=O)N1CCCC(C(=O)c2ccc3ccccc3c2)C1 (stereo not drawn)", "inhibition (%)": -4.94}
{"compound": "COc1cccc(C(=O)N(Cc2nc(-c3ccc(C)cc3)no2)C(C)C)c1", "inhibition (%)": -3.98}
{"compound": "Cc1cccc(CSc2nnc(CCNC(=O)OC(C)(C)C)o2)c1", "inhibition (%)": 15}
{"compound": "COc1ccc(C2Nc3ccccc3C(=O)N2c2ccccc2)cc1COc1ccccn1 (stereo not drawn)", "inhibition (%)": 6.87}

====

Items are presented alongside their recorded inhibition.
# assay_summary: M. tuberculosis H37Rv growth inhibitors, H37Rv strain (AID 1626);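 further: bacteria incubated seven days before Alamar blue readout; 0% = bacteria only wells and 100% = bacteria with antibiotic wells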
# test_context: hits give high values, concentration not given here
Among all 220,000 compounds or so, about 2,000 (0.91%) were called active. Inconclusive results (about 2%) are left out. Only a sample is shown. Measured potencies and affinities stand elsewhere.
reported_endpoint: inhibition

{"compound": "COc1cc(-c2nn3c(C4CCCCC4)nnc3s2)cc(OC)c1OC", "reported_endpoint": "inhibition", "reported_measurement": "28.5% (inactive)"}
{"compound": "O=C(N/N=C/c1ccccc1C(F)(F)F)c1ccc(O)cc1", "reported_endpoint": "inhibition", "reported_measurement": "-4.67% (inactive)"}
{"compound": "COc1ccc(-c2nn3c(C4CCCCC4)nnc3s2)cc1OC", "reported_endpoint": "inhibition", "reported_measurement": "4.71% (inactive)"}
{"compound": "Cc1ccccc1OCc1nnc(SCC(=O)NCc2ccccc2)n1C", "reported_endpoint": "inhibition", "reported_measurement": "2.63% (inactive)"}
{"compound": "COc1ccc(NC(=O)Nc2ccc(F)cc2F)cc1", "reported_endpoint": "inhibition", "reported_measurement": "10.7% (inactive)"}
{"compound": "CC(CC(=O)N1CCN(c2ccc(C(F)(F)F)cn2)CC1)n1ccnc1 (stereo unspecified)", "reported_endpoint": "inhibition", "reported_measurement": "1.81% (inactive)"}
{"compound": "COCCN(CC(=O)NC1CCCCC1)C(=O)CSc1nc2ccccc2o1", "reported_endpoint": "inhibition", "reported_measurement": "-4.79% (inactive)"}
{"compound": "CN=C(SCc1cc2c(cc1Cl)OCO2)c1c(O)n(C)c(=O)n(C)c1=O", "reported_endpoint": "inhibition", "reported_measurement": "-0.46% (inactive)"}
{"compound": "CCN(CC)c1nc2ccccc2[nH]c1=O", "reported_endpoint": "inhibition", "reported_measurement": "-5.3% (inactive)"}
{"compound": "Cc1cc(N2CCN(C)CC2)nc2ccc(NC(=S)N3CCCCC3)cc12", "reported_endpoint": "inhibition", "reported_measurement": "30.4% (inactive)"}
{"compound": "O=C(Cn1nc(-c2ccccc2)nc1-c1ccccc1)N1CCOCC1", "reported_endpoint": "inhibition", "reported_measurement": "-4.2% (inactive)"}
{"compound": "CCc1cc(=S)n2c([nH]c3ccccc32)c1C#N", "reported_endpoint": "inhibition", "reported_measurement": "-2.47% (inactive)"}
{"compound": "CC(NC(=O)c1ccccc1NC(=O)c1ccncc1)c1ccccc1 (stereo unspecified)", "reported_endpoint": "inhibition", "reported_measurement": "6.19% (inactive)"}
{"compound": "CCc1c(C)c(C#N)c2[nH]c3ccccc3n2c1=S", "reported_endpoint": "inhibition", "reported_measurement": "-5.86% (inactive)"}
{"compound": "Cc1cccc(C(=O)Nc2ccccc2C(=O)OCC(=O)Nc2ccc(C#N)cc2)c1", "reported_endpoint": "inhibition", "reported_measurement": "45% (inactive)"}
{"compound": "CC(C)(CC(=O)O)CC(=O)NNc1ncccc1C#N", "reported_endpoint": "inhibition", "reported_measurement": "9.47% (inactive)"}
{"compound": "CCOC(=O)Nc1c(C)n(C)n(-c2ccccc2)c1=O", "reported_endpoint": "inhibition", "reported_measurement": "-5.08% (inactive)"}
{"compound": "Cn1nc(-c2ccc(Cl)cc2)c2cc(C(=O)N3CCN(c4ccccc4)CC3)sc21", "reported_endpoint": "inhibition", "reported_measurement": "7.8% (inactive)"}
{"compound": "NC1=NC(c2ccccc2)=NC1(NC(=O)c1ccccc1)C(Cl)Cl (stereo unspecified)", "reported_endpoint": "inhibition", "reported_measurement": "-0.7% (inactive)"}
{"compound": "Cc1cc(C)n(C(=O)c2ccc([N+](=O)[O-])cc2N)n1", "reported_endpoint": "inhibition", "reported_measurement": "-10.3% (inactive)"}
{"compound": "Cc1c(CCC(C)C)c(=O)n2c([nH]c3ccccc32)c1C#N", "reported_endpoint": "inhibition", "reported_measurement": "5.47% (inactive)"}
{"compound": "Cc1cc(C)n(C(=O)c2ccccc2[N+](=O)[O-])n1", "reported_endpoint": "inhibition", "reported_measurement": "6.43% (inactive)"}
{"compound": "O=C(CSC1=NCCN1)NC12CC3CC(CC(C3)C1)C2", "reported_endpoint": "inhibition", "reported_measurement": "-6.99% (inactive)"}
{"compound": "COc1ccc(C(CC(=O)c2ccc(C)cc2)Nc2ccc([N+](=O)[O-])cc2)cc1 (stereo unspecified)", "reported_endpoint": "inhibition", "reported_measurement": "13.5% (inactive)"}
{"compound": "COC(=O)c1ccc(N)c(N=CC2=C(O)CC(C)(C)CC2=O)c1", "reported_endpoint": "inhibition", "reported_measurement": "99.2% (inactive)"}
{"compound": "O=C(Nc1ccc(C(F)(F)F)cc1)c1cnc(N2CCN(c3ccccn3)CC2)c2ccccc12", "reported_endpoint": "inhibition", "reported_measurement": "65.3% (inactive)"}
{"compound": "O=C(NCc1n[nH]c(=S)n1Cc1ccccc1)c1ccc(Cl)cc1Cl", "reported_endpoint": "inhibition", "reported_measurement": "7.03% (inactive)"}
{"compound": "Cc1sc2nc(COC(=O)c3cccc(OC(F)F)c3)[nH]c(=O)c2c1C", "reported_endpoint": "inhibition", "reported_measurement": "11.1% (inactive)"}
{"compound": "COc1ccccc1N(CC(=O)NCc1ccccc1)C(=O)CCC(=O)Nc1cc(C)ccn1", "reported_endpoint": "inhibition", "reported_measurement": "-0.58% (inactive)"}
{"compound": "CCOC(=O)c1cc(-c2ccco2)nc2c1c(C)nn2-c1cccc(Cl)c1", "reported_endpoint": "inhibition", "reported_measurement": "-0.03% (inactive)"}
{"compound": "CC(C)(C)CC(C)(C)NC(=S)NC1CCN(Cc2ccccc2)CC1", "reported_endpoint": "inhibition", "reported_measurement": "-15.9% (inactive)"}
